Taken from PubChem BioAssay AID588342.

- Target desc: Luciferin 4-monooxygenase (Photinus pyralis)
- Protocol notes: qHTS profiling assay for firefly luciferase inhibitor/activator using purifed enzyme and Km concentrations of substrates (counterscreen for miR-21 project); also: nearly all actives have a fitted effect of over 55% in size
- Experimental context: purified FLuc, luminescence inhibition; series mostly up to 57.5 µM
Out of some 360,000 compounds screened, about 25,000 (6.9%) were called active. Inconclusive results (about 9%) are left out. Calls follow the shape of the dose curve; as a rule, active = well fitted inhibition curve with a large enough effect; inconclusive = small, poorly fitted or top-dose-only effect; inactive = flat fitted curve, though single readings scatter. The full list was thinned out, with actives kept by preference.
Outcome codes: active, inactive

{"Compound": "CN1CCN(C(CNC(=O)c2ccccc2F)c2ccc3c(c2)OCO3)CC1 (stereo unspecified)", "Answer label": "inactive"}
{"Compound": "O=C(Nc1cccc2cccnc12)c1cccc(N2C(=O)CCC2=O)c1", "Answer label": "active"}
{"Compound": "COc1ccc(-c2noc(CN(C)S(=O)(=O)c3ccc(C)cc3)n2)cc1", "Answer label": "inactive"}
{"Compound": "Cc1ccc(-c2noc(CSc3nnc(-c4cccs4)n3C)n2)cc1", "Answer label": "inactive"}
{"Compound": "Cc1cc(NC(=O)c2cccc(N3C(=O)CCC3=O)c2)no1", "Answer label": "inactive"}
{"Compound": "COc1cc(OC)c(NC(=O)c2nc(-c3ccncc3)no2)cc1Cl", "Answer label": "inactive"}
{"Compound": "Cc1ccc(-c2noc(CSc3nnc(-c4ccncc4)n3-c3ccc(F)cc3)n2)cc1", "Answer label": "inactive"}
{"Compound": "CCOc1ccc(NC(=O)NNC(=O)c2ccc(Cl)cc2Cl)cc1", "Answer label": "inactive"}
{"Compound": "Cc1ccc(Oc2nc(-c3ccccn3)nc3ccccc23)cc1", "Answer label": "inactive"}
{"Compound": "O=C(Oc1ccc(-c2nc(-c3ccccn3)no2)cc1)c1ccccc1", "Answer label": "active"}
{"Compound": "O=C(Nc1cccc2cccnc12)c1cccc2c(Br)cccc12", "Answer label": "inactive"}

---

- Target desc: Luciferin 4-monooxygenase (Photinus pyralis) (UniProt P08659)
- Sequence (P08659 whole entry, looked up): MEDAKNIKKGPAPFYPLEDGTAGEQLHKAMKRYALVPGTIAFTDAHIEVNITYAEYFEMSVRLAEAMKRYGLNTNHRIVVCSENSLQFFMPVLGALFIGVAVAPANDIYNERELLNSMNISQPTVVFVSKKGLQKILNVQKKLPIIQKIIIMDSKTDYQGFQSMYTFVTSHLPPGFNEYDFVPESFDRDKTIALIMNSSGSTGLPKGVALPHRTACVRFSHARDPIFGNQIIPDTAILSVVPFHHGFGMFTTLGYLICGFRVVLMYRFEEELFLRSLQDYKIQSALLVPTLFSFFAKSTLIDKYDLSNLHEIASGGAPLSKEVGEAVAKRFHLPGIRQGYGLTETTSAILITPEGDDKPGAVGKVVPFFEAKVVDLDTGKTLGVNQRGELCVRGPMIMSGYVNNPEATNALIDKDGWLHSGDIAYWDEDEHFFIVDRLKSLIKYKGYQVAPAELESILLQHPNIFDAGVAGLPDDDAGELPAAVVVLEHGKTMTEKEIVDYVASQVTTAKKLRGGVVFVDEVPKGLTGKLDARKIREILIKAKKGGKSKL
- Protocol notes: qHTS profiling assay for firefly luciferase inhibitor/activator using purifed enzyme and Km concentrations of substrates (counterscreen for miR-21 project); also: nearly all actives have a fitted effect of over 55% in size
- Experimental context: purified FLuc, luminescence inhibition; series mostly up to 57.5 µM
In all, about 360,000 compounds went through this assay and about 25,000 (6.9%) were called active. About 9% were inconclusive and are not listed. The call rests on the fitted dose curve; in most records, active means well fitted inhibition curve with a large enough effect; inconclusive means small, poorly fitted or top-dose-only effect; inactive means flat fitted curve, though single readings scatter. Shown is part of a subset that was picked to be rich in actives.
Possible outcomes: class 1 (active), class 0 (inactive)

{"Compound": "Cc1cc(C)cc(NC(=O)CSc2nc3nccnc3c(=O)n2CCc2c[nH]c3ccccc23)c1", "Answer label": "class 0"}
{"Compound": "Cc1cccc(C)c1Nc1nnc(SCC(=O)Nc2sccc2C#N)s1", "Answer label": "class 0"}
{"Compound": "CCC(=O)N1CCc2cc(S(=O)(=O)NC(C(=O)Nc3ccc(C(C)=O)cc3)C(C)C)ccc21 (stereo unspecified)", "Answer label": "class 0"}
{"Compound": "CCCn1c2ccccc2c2cnn(CC(=O)NCCCOC(C)C)c(=O)c21", "Answer label": "class 0"}
{"Compound": "CC1CCCC(C)N1C(=O)CN1CCN(c2nc(-c3ccc(F)cc3)cs2)CC1 (stereo unspecified)", "Answer label": "class 0"}
{"Compound": "Cc1csc(SCC(=O)Nc2sccc2C#N)n1", "Answer label": "class 1"}

---

- Target desc: Luciferin 4-monooxygenase (Photinus pyralis) (UniProt P08659)
- Protocol notes: qHTS profiling assay for firefly luciferase inhibitor/activator using purifed enzyme and Km concentrations of substrates (counterscreen for miR-21 project); also: nearly all actives have a fitted effect of over 55% in size
- Experimental context: purified FLuc, luminescence inhibition; series mostly up to 57.5 µM
About 25,000 (6.9%) of roughly 360,000 compounds were called active. About 9% were inconclusive and are not listed. The call rests on the fitted dose curve; in most records, active means well fitted inhibition curve with a large enough effect; inconclusive means small, poorly fitted or top-dose-only effect; inactive means flat fitted curve, though single readings scatter. This is one part of a sample in which actives are shown more often than they occur.
Classes used: true (1) = active, false (0) = inactive

{"Compound": "CC(NC(=O)c1cccc(S(=O)(=O)N2CCc3ccccc3C2)c1)c1ccco1 (stereo unspecified)", "Answer label": "false (0)"}
{"Compound": "Cc1cc(C)c2oc(C(=O)Nc3ccc(S(=O)(=O)N4CCCCCC4)cc3)cc(=O)c2c1", "Answer label": "false (0)"}
{"Compound": "O=C(/C=C/c1ccc(Cl)cc1Cl)c1cccnc1", "Answer label": "true (1)"}
{"Compound": "CSCC[C@H](NC(=O)OC(C)(C)C)C(=O)N/N=C/c1cc2ccc(C)cc2nc1Cl", "Answer label": "false (0)"}
{"Compound": "O=C1CC(NNc2ccccc2)C(=O)N1c1cccc(Cl)c1 (stereo unspecified)", "Answer label": "false (0)"}
{"Compound": "O=c1c2cc(Br)ccc2nc(-c2cccc(Cl)c2)n1O", "Answer label": "false (0)"}
